experiment: in vivo; settings: Sprague-Dawley, rat, po, 8 umol/kg
REPORTED ENDPOINT: bioavailability (%)
Express it in %; write the number only.

In: // lookup bioavailability for `COCCNS(=O)(=O)c1c(Cl)ccc(Nc2c(Nc3ccccc3)c(=O)c2=O)c1O`
Out: 23

In: // lookup bioavailability for `Cl.O=c1c(Nc2ccccc2)c(Nc2ccc(Cl)c(S(=O)(=O)N3CCC(N4CCCCC4)CC3)c2O)c1=O`
Out: 5

----------
assay: Volume of distribution at steady state in Sprague-Dawley rat at 4 umol/kg, iv and 8 umol/kg, po; assay type: ADME, organism-based; settings: in vivo, read-out: Vdss
REPORTED ENDPOINT: Vd (L/kg)
Express it in L/kg; write the number only.

In: // lookup Vd for `Cc1ccccc1Nc1c(Nc2ccc(C)c(S(=O)(=O)N(C)C)c2O)c(=O)c1=O`
Out: 0.25

In: // lookup Vd for `CN1CCCN(S(=O)(=O)c2c(Cl)ccc(Nc3c(Nc4ccccc4Br)c(=O)c3=O)c2O)CC1.Cl`
Out: 0.24

In: // lookup Vd for `N#Cc1ccc(Nc2c(Nc3ccccc3Br)c(=O)c2=O)c(O)c1`
Out: 0.15

In: // lookup Vd for `Cl.O=c1c(Nc2ccccc2)c(Nc2ccc(Cl)c(S(=O)(=O)N3CCC(N4CCCCC4)CC3)c2O)c1=O`
Out: 0.24

In: // lookup Vd for `CN1CCCN(S(=O)(=O)c2c(Cl)ccc(Nc3c(Nc4ccccc4Cl)c(=O)c3=O)c2O)CC1.Cl`
Out: 0.31

In: // lookup Vd for `CN1CCCN(C(=O)c2cccc(Nc3c(Nc4ccccc4)c(=O)c3=O)c2O)CC1.O=C(O)C(F)(F)F`
Out: 0.33

In: // lookup Vd for `O=C(c1cccc(Nc2c(Nc3ccccc3C(F)(F)F)c(=O)c2=O)c1O)N1CCCC1`
Out: 0.66

In: // lookup Vd for `CCCc1ccccc1Nc1c(Nc2ccc(Cl)c(S(=O)(=O)N3CCN(CC)CC3)c2O)c(=O)c1=O.O=C(O)C(F)(F)F`
Out: 0.89

In: // lookup Vd for `COCCNS(=O)(=O)c1c(Cl)ccc(Nc2c(Nc3ccccc3)c(=O)c2=O)c1O`
Out: 0.14
